Experiment: Cytotoxicity for host macrophages (XTT)
Type: cell-based
Details: mouse, murine peritoneal macrophages
observation type: CC50 at 24 h

{"molecule": "Oc1cc(O)cc(/C=C/c2ccc(O)c(O)c2)c1 [Piceatannol, trans-3,4,3',5'-tetrahydroxystilbene]", "observation type": "CC50 at 24 h", "reported result": "> 400 µM"}
